# System: XF498
# PROTOCOL DETAILS: NCI tumour cell line growth inhibition, 48 h
Counter-ions that a name gives are not always drawn. Calls of active or inactive are those of the source. Cut-off read from the data, not from the text of the source: active = GI50 up to about 1.1 µM and inactive = higher.
TEST READOUT: GI50

See these solved cases before continuing.
INSERT INTO measurements (molecule, reported_measurement) VALUES
  ('CC1(C)OC(=O)C(c2cccs2)C(=O)O1', '> 100 µM (inactive)'),
  ('Cc1ccccc1C(C#N)C(=O)C(=O)Nc1cccc(Cl)c1 (stereo not given)', '71.4 µM (inactive)'),
  ('CC(C)(C)C1=Nc2c(Br)cc(C(C)(C)C)cc2C(C(F)(F)F)(C(F)(F)F)O1', '19 µM (inactive)'),
  ('CC1=NN(C(=O)CC(=O)Nc2ccccc2F)C(=O)C1/N=N/c1ccccc1[N+](=O)[O-] (stereo not given)', '> 100 µM (inactive)');

Now, please, on to the next molecule.
## Input Data request, read-out GI50, for CNC(C)Cc1ccccc1OC (stereo not given) [METHOXYPHENAMINE HYDROCHLORIDE]
## Output > 100 µM (inactive)
